Quick record of pKi values for human 5-HT2A receptor (Homo sapiens, UniProt P28223).
pKi: −log10 of the molar value.
Measured Property: pKi

Use the examples below as a reference point.
{"columns": ["Compound", "Test Result"],
 "data": [
  ["CN(C)S(=O)(=O)N[C@H]1CC[C@H](CCN2CCN(c3nccc4c3OCC4)CC2)CC1", 7.51],
  ["O=C(N[C@H]1CC[C@H](CCN2CCN(c3nccc4c3OCC4)CC2)CC1)C1CCCOC1 (mixture of isomers)", 7.56],
  ["O=S(=O)(N[C@H]1CC[C@H](CCN2CCN(c3nccc4c3OCC4)CC2)CC1)c1ccc(F)cc1", 6.69],
  ["O=C(N[C@H]1CC[C@H](CCN2CCN(c3nccc4c3OCC4)CC2)CC1)c1ccc(N2CCOCC2)nc1", 7.65],
  ["O=S(=O)(N[C@H]1CC[C@H](CCN2CCN(c3nccc4c3OCC4)CC2)CC1)c1ccccc1", 6.82]
]}

A: CC(C)(O)CC(=O)N[C@H]1CC[C@H](CCN2CCN(c3nccc4c3OCC4)CC2)CC1
B: O=C(N[C@H]1CC[C@H](CCN2CCN(c3nccc4c3OCC4)CC2)CC1)c1ccc(-c2cccnc2)cc1
Request: Just curious, which one has the larger pKi reading, A or B ? Please identify the chosen entry by its label.
Response: B
(B: 7.72, A: 7.30)

1: CC(C)CCC(=O)N[C@H]1CC[C@H](CCN2CCN(c3nccc4c3OCC4)CC2)CC1
2: COCCC(=O)N[C@H]1CC[C@H](CCN2CCN(c3nccc4ccsc34)CC2)CC1
Request: Parameter check: reported pKi is higher for which label, 1 or 2 ? Please identify the chosen entry by its label.
Response: 2

----------
Measured Property: melting point (°C)

a: CC(=O)N[C@H]1CC[C@H](CCN2CCN(c3nccc4ccoc34)CC2)CC1
b: N#Cc1ccc(C(=O)N[C@H]2CC[C@H](CCN3CCN(c4nccc5c4OCC5)CC3)CC2)cc1
Request: Of a and b , whose reported melting point is numerically smaller? Your answer should be the label attached to the chosen record.
Response: a
(a: 157 °C, b: 262.5 °C)

a: O=C(CC(F)(F)F)N[C@H]1CC[C@H](CCN2CCN(c3nccc4c3OCC4)CC2)CC1
b: COCC(=O)N[C@H]1CC[C@H](CCN2CCN(c3nccc4ccoc34)CC2)CC1
Request: Which record shows the lower melting point: the first, a , or the second, b ? # reply format: chosen label
Response: b
(b: 132 °C, a: 216.5 °C)

----------
Target Entity: human D2 receptor (Homo sapiens, UniProt P14416)
Construct: membrane preparation
Sequence (P14416 whole entry): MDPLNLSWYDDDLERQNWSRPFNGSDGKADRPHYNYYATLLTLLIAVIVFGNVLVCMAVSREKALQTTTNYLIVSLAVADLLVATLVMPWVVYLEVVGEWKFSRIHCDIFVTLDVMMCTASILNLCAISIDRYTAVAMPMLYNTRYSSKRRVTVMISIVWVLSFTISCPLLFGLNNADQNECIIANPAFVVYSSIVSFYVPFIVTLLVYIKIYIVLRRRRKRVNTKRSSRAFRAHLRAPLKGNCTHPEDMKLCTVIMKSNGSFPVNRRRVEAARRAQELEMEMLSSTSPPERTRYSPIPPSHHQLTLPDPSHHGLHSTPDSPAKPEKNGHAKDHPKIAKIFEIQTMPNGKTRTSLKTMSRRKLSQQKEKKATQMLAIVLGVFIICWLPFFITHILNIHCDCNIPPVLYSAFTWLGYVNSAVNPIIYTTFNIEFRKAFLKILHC
Assay: Radioligand binding to cloned human D2 receptor expressed in HEK-293 EBNA cells ([3H]-spiperone)
Condition Parameters: HEK293 EBNA cell membranes, approximately 0.7 nM [3H]-spiperone, 1 h at RT
pKi: −log10 of the molar value.
Measured Property: pKi

Please review the entries below; each comes with its answer.
{"columns": ["Chemical Structure", "Target Entity", "Test Result"],
 "data": [
  ["CC(C)(C)C(=O)N[C@H]1CC[C@H](CCN2CCN(c3nccc4c3OCC4)CC2)CC1", "human D2 receptor (Homo sapiens, UniProt P14416)", 6.17],
  ["CCC(=O)N[C@H]1CC[C@H](CCN2CCN(c3nccc4ccsc34)CC2)CC1", "human D2 receptor (Homo sapiens, UniProt P14416)", 6.64]
]}

A: O=C(N[C@H]1CC[C@H](CCN2CCN(c3nccc4c3OCC4)CC2)CC1)c1ccc2ncccc2c1
B: O=C(N[C@H]1CC[C@H](CCN2CCN(c3nccc4c3OCC4)CC2)CC1)c1ccccc1
Request: Param pair: A , B . Output: the one whose pKi is numerically greater. Write the label of whichever entry you select.
Response: B

A: O=C(N[C@H]1CC[C@H](CCN2CCN(c3nccc4c3OCC4)CC2)CC1)C1CCC1
B: O=C(CC1(O)CCC1)N[C@H]1CC[C@H](CCN2CCN(c3nccc4c3OCC4)CC2)CC1
Request: // compare measured pKi between A and B ; output the lower one Give the label of your selection.
Response: B

----------
Target Entity: human 5-HT2A receptor (Homo sapiens)
Measured Property: Ki (nM)

{"columns": ["Molecule", "Ki / nM"],
 "data": [
  ["CN(C)C(=O)N[C@H]1CC[C@H](CCN2CCN(c3nccc4c3OCC4)CC2)CC1", 135],
  ["O=C(N[C@H]1CC[C@H](CCN2CCN(c3nccc4c3OCC4)CC2)CC1)C1CCC1", 30.3],
  ["O=C(N[C@H]1CC[C@H](CCN2CCN(c3nccc4c3OCC4)CC2)CC1)C(O)C(F)(F)F (mixture of isomers)", 32.9]
]}

A: O=C(N[C@H]1CC[C@H](CCN2CCN(c3nccc4c3OCC4)CC2)CC1)c1ccc2ncccc2c1
B: CC[C@H](O)CC(=O)N[C@H]1CC[C@H](CCN2CCN(c3nccc4c3OCC4)CC2)CC1
Request: Lab log: flag the item ( A or B ) with the smaller Ki figure. Record your answer as the label of the chosen record.
Response: A
(A: 35.4 nM, B: 56.8 nM)

1: O=C(CC1CCOCC1)N[C@H]1CC[C@H](CCN2CCN(c3nccc4ccoc34)CC2)CC1
2: CS(=O)(=O)CC(=O)N[C@H]1CC[C@H](CCN2CCN(c3nccc4c3OCC4)CC2)CC1
Request: Determine, for 1 and 2 , which has the greater value of Ki. # answer = label of selected item
Response: 2
(2: 52.1 nM, 1: 21.7 nM)

----------
Parameter 'readout' = pKi; parameter 'system' = human 5-HT2A receptor (Homo sapiens, UniProt P28223).
Sequence (P28223 whole entry): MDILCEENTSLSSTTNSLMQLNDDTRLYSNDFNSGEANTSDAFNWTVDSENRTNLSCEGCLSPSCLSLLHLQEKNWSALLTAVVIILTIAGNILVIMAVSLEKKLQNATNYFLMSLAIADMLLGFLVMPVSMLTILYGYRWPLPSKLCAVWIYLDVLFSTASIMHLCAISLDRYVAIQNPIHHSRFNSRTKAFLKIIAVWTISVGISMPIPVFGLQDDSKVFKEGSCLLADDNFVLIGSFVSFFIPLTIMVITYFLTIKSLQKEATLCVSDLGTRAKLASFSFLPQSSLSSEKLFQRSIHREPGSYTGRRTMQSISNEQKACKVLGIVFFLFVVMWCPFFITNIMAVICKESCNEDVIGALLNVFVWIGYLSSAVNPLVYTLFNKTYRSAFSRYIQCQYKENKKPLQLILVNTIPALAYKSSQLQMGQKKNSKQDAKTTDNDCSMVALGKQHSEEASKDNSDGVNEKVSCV
pKi: −log10 of the molar value.
Measured Property: pKi

Here is how some molecules turned out for pKi.
{"columns": ["Molecule", "pKi"],
 "data": [
  ["O=C(N[C@H]1CC[C@H](CCN2CCN(c3nccc4c3OCC4)CC2)CC1)C1CCOC1 (some centres unmarked)", 7.55],
  ["CC(C)(C)CC(=O)N[C@H]1CC[C@H](CCN2CCN(c3nccc4c3OCC4)CC2)CC1", 7.23],
  ["O=C(N[C@H]1CC[C@H](CCN2CCN(c3nccc4c3OCC4)CC2)CC1)C1(O)CCC1", 7.80],
  ["O=C(CCC(F)(F)F)N[C@H]1CC[C@H](CCN2CCN(c3nccc4c3OCC4)CC2)CC1", 6.95]
]}

I: Cc1nc(-c2cccc(C(=O)N[C@H]3CC[C@H](CCN4CCN(c5nccc6c5OCC6)CC4)CC3)c2)no1
II: CC(C)(O)C(=O)N[C@H]1CC[C@H](CCN2CCN(c3nccc4c3OCC4)CC2)CC1
Request: Out of I and II , name the one with the higher pKi. Please indicate the selected item by its label.
Response: II

I: CN(C)C(=O)CCC(=O)N[C@H]1CC[C@H](CCN2CCN(c3nccc4c3OCC4)CC2)CC1
II: O=C(N[C@H]1CC[C@H](CCN2CCN(c3nccc4c3OCC4)CC2)CC1)C1CC1
Request: Identify the entry with the smaller pKi: I or II . Give the label of your selection.
Response: I
(I: 7.20, II: 7.49)

1: COCCC(=O)N[C@H]1CC[C@H](CCN2CCN(c3nccc4c3OCC4)CC2)CC1
2: Cc1cc(CC(=O)N[C@H]2CC[C@H](CCN3CCN(c4nccc5c4OCC5)CC3)CC2)on1
3: CO[C@H](C)C(=O)N[C@H]1CC[C@H](CCN2CCN(c3nccc4c3OCC4)CC2)CC1
Request: Arrange the 3 molecules from largest to smallest pKi. Kindly provide the labels arranged according to the requested ordering.
Response: 3, 2, 1
(3: 7.64, 2: 7.39, 1: 7.17)

----------
Measured Property: melting point (°C)

{"columns": ["Molecule", "Measured Property", "Test Result"],
 "data": [
  ["O=C(N[C@H]1CC[C@H](CCN2CCN(c3nccc4c3OCC4)CC2)CC1)C1CCCOC1 (mixture of isomers) [Example 97]", "melting point", 203],
  ["O=C(N[C@H]1CC[C@H](CCN2CCN(c3nccc4c3OCC4)CC2)CC1)c1ccc(C(F)(F)F)cc1 [Example 55]", "melting point", 242.5],
  ["O=C(N[C@H]1CC[C@H](CCN2CCN(c3nccc4c3OCC4)CC2)CC1)C1CCOC1 (stereo partly shown) [Example 34]", "melting point", 195],
  ["O=C(CC1CCOCC1)N[C@H]1CC[C@H](CCN2CCN(c3nccc4c3OCC4)CC2)CC1 [Example 8]", "melting point", 222.5],
  ["CO[C@H]1CC[C@H](CC(=O)N[C@H]2CC[C@H](CCN3CCN(c4nccc5c4OCC5)CC3)CC2)C1 [Example 52]", "melting point", 199],
  ["O=C(Cc1ccc2c(c1)OCO2)N[C@H]1CC[C@H](CCN2CCN(c3nccc4c3OCC4)CC2)CC1 [Example 80]", "melting point", 187],
  ["CC(C)=CC(=O)N[C@H]1CC[C@H](CCN2CCN(c3nccc4c3OCC4)CC2)CC1 [Example 88]", "melting point", 183.5]
]}

Where do the numbers come from? From patent US8470828B2.
